settings: in acetone, 288.15 K

{"Smiles string": "CN1c2ccccc2C(=O)N2CCc3c([nH]c4ccccc34)[C@H]21", "solubility (mole fraction)": 0.000226}

----------
conditions: in methanol, 293.15 K
Property measured: solubility (mole fraction)

{"Smiles string": "CN1c2ccccc2C(=O)N2CCc3c([nH]c4ccccc34)[C@H]21", "Property measured": "solubility (mole fraction)", "Test value": "5.4e-05"}

----------
conditions: in acetone, 283.15 K
Property measured: solubility (mole fraction)

{"Smiles string": "CN1c2ccccc2C(=O)N2CCc3c([nH]c4ccccc34)[C@H]21", "Test value": 0.000192}

----------
details: in isopropanol, 283.15 K

{"Smiles string": "CN1c2ccccc2C(=O)N2CCc3c([nH]c4ccccc34)[C@H]21", "solubility (mole fraction)": "6.79e-05"}

----------
details: in acetone, 298.15 K

{"Smiles string": "CN1c2ccccc2C(=O)N2CCc3c([nH]c4ccccc34)[C@H]21", "solubility (mole fraction)": 0.000315}

----------
details: in methanol, 283.15 K
Property measured: solubility (mole fraction)

{"Smiles string": "CN1c2ccccc2C(=O)N2CCc3c([nH]c4ccccc34)[C@H]21", "Test value": "3.43e-05"}

----------
settings: in isopropanol, 303.15 K

{"Smiles string": "CN1c2ccccc2C(=O)N2CCc3c([nH]c4ccccc34)[C@H]21", "solubility (mole fraction)": 0.000142}

----------
conditions: in ethanol, 308.15 K

{"Smiles string": "CN1c2ccccc2C(=O)N2CCc3c([nH]c4ccccc34)[C@H]21", "solubility (mole fraction)": 0.000157}

----------
conditions: in ethanol, 303.15 K

{"Smiles string": "CN1c2ccccc2C(=O)N2CCc3c([nH]c4ccccc34)[C@H]21", "solubility (mole fraction)": 0.000132}

----------
details: in ethanol, 298.15 K

{"Smiles string": "CN1c2ccccc2C(=O)N2CCc3c([nH]c4ccccc34)[C@H]21", "solubility (mole fraction)": 0.00011}

----------
settings: in methanol, 303.15 K
Property measured: solubility (mole fraction)

{"Smiles string": "CN1c2ccccc2C(=O)N2CCc3c([nH]c4ccccc34)[C@H]21", "Test value": "8.31e-05"}

----------
settings: in isopropanol, 298.15 K
Property measured: solubility (mole fraction)

{"Smiles string": "CN1c2ccccc2C(=O)N2CCc3c([nH]c4ccccc34)[C@H]21", "Property measured": "solubility (mole fraction)", "Test value": 0.000121}

----------
settings: in acetone, 293.15 K

{"Smiles string": "CN1c2ccccc2C(=O)N2CCc3c([nH]c4ccccc34)[C@H]21", "solubility (mole fraction)": 0.000267}

----------
conditions: in isopropanol, 323.15 K
Property measured: solubility (mole fraction)

{"Smiles string": "CN1c2ccccc2C(=O)N2CCc3c([nH]c4ccccc34)[C@H]21", "Test value": 0.000276}

----------
details: in acetone, 308.15 K
Property measured: solubility (mole fraction)

{"Smiles string": "CN1c2ccccc2C(=O)N2CCc3c([nH]c4ccccc34)[C@H]21", "Property measured": "solubility (mole fraction)", "Test value": 0.000426}

// provenance: BigSolDB 2.1
